Measured values drawn from patent US10793563B2 for this set.

Heads up, these compounds all have IC50 values measured for GCN2 kinase (Homo sapiens (Human)).

Solved cases below.
compound=NC(=O)[C@H]1C[C@H](O)CN(c2nccc(-c3cnc4ccc(Cl)cn34)n2)C1 test_result="< 10 nM"
compound="CS(=O)(=O)NC1CC(C(F)(F)F)CN(c2ccnc(-c3cnc4ccc(C(F)(F)F)cn34)n2)C1 (centres unmarked)" test_result="10 to 100 nM"
compound="FC(F)(F)c1ccc2ncc(-c3nccc(N4CCN(CC5CC56CC6)C(c5cn[nH]c5)C4)n3)n2c1 (centres unmarked)" test_result="10 to 100 nM"

Next up:
Q: Any idea what IC50 came out for `C[C@H]1[C@H](CNS(C)(=O)=O)NCCN1c1ccnc(-c2cnc3ccc(C(F)(F)F)cn23)n1` on GCN2 kinase (Homo sapiens (Human))?
Ans: 100 to 1000 nM

====

molecular target: intracellular GCN2 (phosphorylation of the GCN2 substrate eIF2α) (Homo sapiens (Human), UniProt Q9P2K8); assay: GCN2 Cellular Inhibition Assay (AlphaScreen SureFire P-eIF2α Ser51, borrelidin-treated U2OS cells); type: cell-based; conditions: 10 μM borrelidin, 1 h, phosphorylated eIF2α Ser51, read-out: GCN2 Biomarker (IC50)
Sequence (Q9P2K8 whole entry): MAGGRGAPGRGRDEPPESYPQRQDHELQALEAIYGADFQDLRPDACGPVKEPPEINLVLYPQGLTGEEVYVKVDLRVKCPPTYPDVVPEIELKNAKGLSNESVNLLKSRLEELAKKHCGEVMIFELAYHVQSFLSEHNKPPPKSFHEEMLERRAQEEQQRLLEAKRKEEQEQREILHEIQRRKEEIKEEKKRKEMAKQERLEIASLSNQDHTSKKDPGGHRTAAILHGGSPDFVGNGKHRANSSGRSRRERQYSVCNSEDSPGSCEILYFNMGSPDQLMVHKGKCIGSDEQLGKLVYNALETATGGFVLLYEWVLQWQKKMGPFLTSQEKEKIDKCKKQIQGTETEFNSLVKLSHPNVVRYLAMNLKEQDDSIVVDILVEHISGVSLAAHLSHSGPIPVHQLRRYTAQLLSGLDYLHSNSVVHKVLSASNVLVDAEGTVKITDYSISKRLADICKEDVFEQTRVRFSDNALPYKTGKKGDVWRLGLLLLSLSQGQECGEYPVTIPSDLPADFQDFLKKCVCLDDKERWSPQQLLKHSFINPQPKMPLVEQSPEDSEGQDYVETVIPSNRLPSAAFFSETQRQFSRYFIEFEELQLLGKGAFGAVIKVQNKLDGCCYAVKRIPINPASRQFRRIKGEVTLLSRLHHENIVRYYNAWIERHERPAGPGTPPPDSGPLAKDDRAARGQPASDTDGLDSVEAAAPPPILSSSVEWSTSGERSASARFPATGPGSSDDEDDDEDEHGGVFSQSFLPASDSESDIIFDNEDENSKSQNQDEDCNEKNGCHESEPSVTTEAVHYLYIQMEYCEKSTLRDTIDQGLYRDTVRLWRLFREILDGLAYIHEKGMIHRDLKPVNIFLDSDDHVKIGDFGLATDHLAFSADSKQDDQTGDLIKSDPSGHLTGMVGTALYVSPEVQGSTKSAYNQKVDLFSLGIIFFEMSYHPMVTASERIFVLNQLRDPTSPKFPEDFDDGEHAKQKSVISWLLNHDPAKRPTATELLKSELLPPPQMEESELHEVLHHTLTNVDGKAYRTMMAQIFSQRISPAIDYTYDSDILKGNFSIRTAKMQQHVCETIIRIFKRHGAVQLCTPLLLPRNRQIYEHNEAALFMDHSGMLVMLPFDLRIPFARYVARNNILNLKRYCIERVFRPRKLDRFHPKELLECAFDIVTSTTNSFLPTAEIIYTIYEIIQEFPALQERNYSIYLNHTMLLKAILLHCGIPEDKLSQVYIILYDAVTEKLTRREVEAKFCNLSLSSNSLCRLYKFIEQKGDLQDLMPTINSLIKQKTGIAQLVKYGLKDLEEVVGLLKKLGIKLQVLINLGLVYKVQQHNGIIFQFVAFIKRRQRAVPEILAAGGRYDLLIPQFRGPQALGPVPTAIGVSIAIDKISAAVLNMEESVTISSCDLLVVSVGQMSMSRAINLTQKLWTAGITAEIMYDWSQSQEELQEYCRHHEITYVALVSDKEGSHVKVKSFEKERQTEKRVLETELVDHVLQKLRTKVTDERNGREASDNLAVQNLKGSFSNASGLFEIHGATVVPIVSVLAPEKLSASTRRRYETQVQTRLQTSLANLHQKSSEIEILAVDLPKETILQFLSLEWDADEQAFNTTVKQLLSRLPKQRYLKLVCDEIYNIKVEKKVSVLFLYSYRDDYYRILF
pIC50: −log10 of the molar value.
Attribute: pIC50

Examples from the recorded data:
compound="FC(F)(F)c1ccc2ncc(-c3nccc(N4CCN(Cc5cnc[nH]5)C(c5cn[nH]c5)C4)n3)n2c1 (stereo not shown) [I-385]" test_result="5.30 to 6.30"
compound="C[C@H](NS(C)(=O)=O)[C@H]1[C@@H](C)N(c2ccnc(-c3cnc4ccc(C(F)(F)F)cn34)n2)CCN1C1CC1 [I-507]" test_result="5.30 to 6.30"

Q: Could you tell me which pIC50 is on file for CC(O)C(=O)N1CCN(c2ccnc(-c3cnc4ccc(C(F)(F)F)cn34)n2)CC1c1cn[nH]c1 (stereo not shown) [I-420] ?
Ans: 5.30 to 6.30

Q: May I ask what pIC50 has been recorded for CS(=O)(=O)NC1CC(C(F)(F)F)CN(c2ccnc(-c3cnc4ccc(C(F)(F)F)cn34)n2)C1 (stereo not shown) [I-478] ?
Ans: > 6.30

Q: Which pIC50 reading was recorded for the compound Cc1oncc1[C@@H]1CN(c2ccnc(-c3cnc4ccc(C(F)(F)F)cn34)n2)C[C@H](C)O1 [I-346] ?
Ans: > 6.30

Q: What value of pIC50 has been reported for the following compound? FC(F)(F)c1ccc2ncc(-c3ccnc(N4CCN(C[C@H]5CCCOC5)[C@H](c5cn[nH]c5)C4)n3)n2c1 [I-545]
Ans: > 6.30

Q: Entry COc1cc(-c2cnc3ccc(Cl)cn23)nc(N2C[C@H](C)C[C@@H](c3cn[nH]c3)C2)n1 [I-280] : reported pIC50 = ?
Ans: > 6.30

====

target: GCN2 kinase (Homo sapiens (Human), UniProt Q9P2K8)
Sequence (Q9P2K8 whole entry): as above
pIC50: −log10 of the molar value.
parameter: pIC50

Recorded pIC50, per entry:
compound=C[C@@H]1CN(c2ccnc(-c3cnc4ccc(C(F)(F)F)cn34)n2)C[C@H](C)N1CC1CCOCC1 parameter=pIC50 test_result="6.00 to 7.00"
compound="O=C(C1CC1(F)F)N1CCN(c2ccnc(-c3cnc4ccc(C(F)(F)F)cn34)n2)CC1c1cn[nH]c1 (stereo not shown)" parameter=pIC50 test_result="7.00 to 8.00"

Q: Provide the documented pIC50 with GCN2 kinase (Homo sapiens (Human), UniProt Q9P2K8) as the system for `C[C@@H]1C[C@H](N=S(C)(C)=O)CN(c2ccnc(-c3cnc4ccc(OC(F)(F)F)cn34)n2)C1`
Ans: 7.00 to 8.00

Q: Form field: pIC50 recorded for `Cc1[nH]ncc1[C@H]1CN(c2nccc(-c3cnc4ccc(Cl)cn34)n2)C[C@@H](C)O1` with GCN2 kinase (Homo sapiens (Human), UniProt Q9P2K8) (enter value)
Ans: > 8.00

Q: Notebook: pull reported pIC50 for GCN2 kinase (Homo sapiens (Human), UniProt Q9P2K8), entry `NC(=O)[C@H]1CCCN(c2nccc(-c3cnc4ccc(Cl)cn34)n2)C1`
Ans: 7.00 to 8.00

Q: So what pIC50 did Fc1ccc(CN2CCN(c3ccnc(-c4cnc5ccc(C(F)(F)F)cn45)n3)CC2c2cn[nH]c2)cc1 (stereo not shown) get with GCN2 kinase (Homo sapiens (Human), UniProt Q9P2K8)?
Ans: 7.00 to 8.00

Q: Hi! What's the reported pIC50 for CS(=O)(=O)NC1CC(C(F)(F)F)CN(c2ccnc(-c3cnc4ccc(C(F)F)cn34)n2)C1 (stereo not shown) on GCN2 kinase (Homo sapiens (Human), UniProt Q9P2K8)?
Ans: 7.00 to 8.00
